# run description: Solubility of CD101 acetate in various media
# Type: physicochemical
# settings: aqueous with cosolvent or surfactant or cyclodextrin; 0.85% Tween 80 in PBS buffer, pH 7.4; maximum solubility not reached; read-out: Solubility
Starred links: 1 amine or outer side, 2 acyl side, 3 side chain; linkers in the order of their positions; H or OH if unused. Positions of bridges follow the written chain, without caps; N, C: chain ends. Non-standard residues stand in square brackets, D forms with d. Residues, ends and D or L forms follow the SMILES beside them. *: point of attachment. Orn(4R-OH,5R-OCH2CH2NMe3+) = C[N+](C)(C)CCO[C@@H](N[*:3])[C@H](O)C[C@H](N[*:1])C(=O)[*:2]; pTerphenylCO(4''-OnC5H11) = CCCCCOc1ccc(-c2ccc(-c3ccc(C(=O)*)cc3)cc2)cc1; hTyr(3S-OH,4S-OH) = N[C@H](C(=O)O)[C@H](O)[C@@H](O)c1ccc(O)cc1; Pro(3S-OH,4S-Me) = C[C@H]1CN[C@H](C(=O)O)[C@H]1O; Hyp = O=C(O)[C@@H]1C[C@@H](O)CN1
test readout: solubility

**Q:** Please report solubility for the following compound: CCCCCOc1ccc(-c2ccc(-c3ccc(C(=O)N[C@H]4C[C@@H](O)[C@@H](OCC[N+](C)(C)C)NC(=O)[C@@H]5[C@@H](O)[C@@H](C)CN5C(=O)[C@H]([C@@H](C)O)NC(=O)[C@H]([C@H](O)[C@@H](O)c5ccc(O)cc5)NC(=O)[C@@H]5C[C@@H](O)CN5C(=O)[C@H]([C@@H](C)O)NC4=O)cc3)cc2)cc1 [CD101 acetate] ({pTerphenylCO(4''-OnC5H11)}-[Orn(4R-OH,5R-OCH2CH2NMe3+)]T[Hyp][hTyr(3S-OH,4S-OH)]T[Pro(3S-OH,4S-Me)]; lactam 1-C)
**A:** > 4100 µg/mL

----------
# run description: Solubility of CD101 acetate in various media
# Format: physicochemical
# settings: 50 mM acetate buffer with 0.4% Tween 20, aqueous with cosolvent or surfactant or cyclodextrin; 50 mM Acetate buffer pH 4.5 with 0.4% Tween 20; maximum solubility not reached; read-out: Solubility
Starred links: 1 amine or outer side, 2 acyl side, 3 side chain; linkers in the order of their positions; H or OH if unused. Positions of bridges follow the written chain, without caps; N, C: chain ends. Non-standard residues stand in square brackets, D forms with d. Residues, ends and D or L forms follow the SMILES beside them. *: point of attachment. Orn(4R-OH,5R-OCH2CH2NMe3+) = C[N+](C)(C)CCO[C@@H](N[*:3])[C@H](O)C[C@H](N[*:1])C(=O)[*:2]; pTerphenylCO(4''-OnC5H11) = CCCCCOc1ccc(-c2ccc(-c3ccc(C(=O)*)cc3)cc2)cc1; hTyr(3S-OH,4S-OH) = N[C@H](C(=O)O)[C@H](O)[C@@H](O)c1ccc(O)cc1; Pro(3S-OH,4S-Me) = C[C@H]1CN[C@H](C(=O)O)[C@H]1O; Hyp = O=C(O)[C@@H]1C[C@@H](O)CN1
test readout: solubility

**Q:** Please report solubility for the following compound: CCCCCOc1ccc(-c2ccc(-c3ccc(C(=O)N[C@H]4C[C@@H](O)[C@@H](OCC[N+](C)(C)C)NC(=O)[C@@H]5[C@@H](O)[C@@H](C)CN5C(=O)[C@H]([C@@H](C)O)NC(=O)[C@H]([C@H](O)[C@@H](O)c5ccc(O)cc5)NC(=O)[C@@H]5C[C@@H](O)CN5C(=O)[C@H]([C@@H](C)O)NC4=O)cc3)cc2)cc1 [CD101 acetate] ({pTerphenylCO(4''-OnC5H11)}-[Orn(4R-OH,5R-OCH2CH2NMe3+)]T[Hyp][hTyr(3S-OH,4S-OH)]T[Pro(3S-OH,4S-Me)]; lactam 1-C)
**A:** > 31.3 mg/mL

----------
# run description: Solubility of CD101 acetate in various media
# Format: physicochemical
# settings: saline or isotonic; 5% dextrose, 5% mannitol and 0.22%-0.45% Sterile Saline Solution; read-out: Solubility (soluble)
Starred links: 1 amine or outer side, 2 acyl side, 3 side chain; linkers in the order of their positions; H or OH if unused. Positions of bridges follow the written chain, without caps; N, C: chain ends. Non-standard residues stand in square brackets, D forms with d. Residues, ends and D or L forms follow the SMILES beside them. *: point of attachment. Orn(4R-OH,5R-OCH2CH2NMe3+) = C[N+](C)(C)CCO[C@@H](N[*:3])[C@H](O)C[C@H](N[*:1])C(=O)[*:2]; pTerphenylCO(4''-OnC5H11) = CCCCCOc1ccc(-c2ccc(-c3ccc(C(=O)*)cc3)cc2)cc1; hTyr(3S-OH,4S-OH) = N[C@H](C(=O)O)[C@H](O)[C@@H](O)c1ccc(O)cc1; Pro(3S-OH,4S-Me) = C[C@H]1CN[C@H](C(=O)O)[C@H]1O; Hyp = O=C(O)[C@@H]1C[C@@H](O)CN1
test readout: solubility

**Q:** Please report solubility for the following molecule: CCCCCOc1ccc(-c2ccc(-c3ccc(C(=O)N[C@H]4C[C@@H](O)[C@@H](OCC[N+](C)(C)C)NC(=O)[C@@H]5[C@@H](O)[C@@H](C)CN5C(=O)[C@H]([C@@H](C)O)NC(=O)[C@H]([C@H](O)[C@@H](O)c5ccc(O)cc5)NC(=O)[C@@H]5C[C@@H](O)CN5C(=O)[C@H]([C@@H](C)O)NC4=O)cc3)cc2)cc1 [CD101 acetate] ({pTerphenylCO(4''-OnC5H11)}-[Orn(4R-OH,5R-OCH2CH2NMe3+)]T[Hyp][hTyr(3S-OH,4S-OH)]T[Pro(3S-OH,4S-Me)]; lactam 1-C)
**A:** > 1000 µg/mL

----------
# run description: Solubility of CD101 acetate in various media
# Format: physicochemical
# settings: 100 mM lactate buffer, aqueous buffer; Lactate buffer (100 mM), pH 6.5; maximum solubility not reached; read-out: Solubility
Starred links: 1 amine or outer side, 2 acyl side, 3 side chain; linkers in the order of their positions; H or OH if unused. Positions of bridges follow the written chain, without caps; N, C: chain ends. Non-standard residues stand in square brackets, D forms with d. Residues, ends and D or L forms follow the SMILES beside them. *: point of attachment. Orn(4R-OH,5R-OCH2CH2NMe3+) = C[N+](C)(C)CCO[C@@H](N[*:3])[C@H](O)C[C@H](N[*:1])C(=O)[*:2]; pTerphenylCO(4''-OnC5H11) = CCCCCOc1ccc(-c2ccc(-c3ccc(C(=O)*)cc3)cc2)cc1; hTyr(3S-OH,4S-OH) = N[C@H](C(=O)O)[C@H](O)[C@@H](O)c1ccc(O)cc1; Pro(3S-OH,4S-Me) = C[C@H]1CN[C@H](C(=O)O)[C@H]1O; Hyp = O=C(O)[C@@H]1C[C@@H](O)CN1
test readout: solubility

**Q:** Please report solubility for the following compound: CCCCCOc1ccc(-c2ccc(-c3ccc(C(=O)N[C@H]4C[C@@H](O)[C@@H](OCC[N+](C)(C)C)NC(=O)[C@@H]5[C@@H](O)[C@@H](C)CN5C(=O)[C@H]([C@@H](C)O)NC(=O)[C@H]([C@H](O)[C@@H](O)c5ccc(O)cc5)NC(=O)[C@@H]5C[C@@H](O)CN5C(=O)[C@H]([C@@H](C)O)NC4=O)cc3)cc2)cc1 [CD101 acetate] ({pTerphenylCO(4''-OnC5H11)}-[Orn(4R-OH,5R-OCH2CH2NMe3+)]T[Hyp][hTyr(3S-OH,4S-OH)]T[Pro(3S-OH,4S-Me)]; lactam 1-C)
**A:** > 48 mg/mL

----------
# run description: Solubility of CD101 acetate in various media
# Assay type: physicochemical
# settings: aqueous buffer; 100 mM Tris buffer, pH 7.4; maximum solubility not reached; read-out: Solubility
Starred links: 1 amine or outer side, 2 acyl side, 3 side chain; linkers in the order of their positions; H or OH if unused. Positions of bridges follow the written chain, without caps; N, C: chain ends. Non-standard residues stand in square brackets, D forms with d. Residues, ends and D or L forms follow the SMILES beside them. *: point of attachment. Orn(4R-OH,5R-OCH2CH2NMe3+) = C[N+](C)(C)CCO[C@@H](N[*:3])[C@H](O)C[C@H](N[*:1])C(=O)[*:2]; pTerphenylCO(4''-OnC5H11) = CCCCCOc1ccc(-c2ccc(-c3ccc(C(=O)*)cc3)cc2)cc1; hTyr(3S-OH,4S-OH) = N[C@H](C(=O)O)[C@H](O)[C@@H](O)c1ccc(O)cc1; Pro(3S-OH,4S-Me) = C[C@H]1CN[C@H](C(=O)O)[C@H]1O; Hyp = O=C(O)[C@@H]1C[C@@H](O)CN1
test readout: solubility

**Q:** Please report solubility for the following compound: CCCCCOc1ccc(-c2ccc(-c3ccc(C(=O)N[C@H]4C[C@@H](O)[C@@H](OCC[N+](C)(C)C)NC(=O)[C@@H]5[C@@H](O)[C@@H](C)CN5C(=O)[C@H]([C@@H](C)O)NC(=O)[C@H]([C@H](O)[C@@H](O)c5ccc(O)cc5)NC(=O)[C@@H]5C[C@@H](O)CN5C(=O)[C@H]([C@@H](C)O)NC4=O)cc3)cc2)cc1 [CD101 acetate] ({pTerphenylCO(4''-OnC5H11)}-[Orn(4R-OH,5R-OCH2CH2NMe3+)]T[Hyp][hTyr(3S-OH,4S-OH)]T[Pro(3S-OH,4S-Me)]; lactam 1-C)
**A:** > 52 mg/mL

meta.source: patent US11819533B2
